# Test Method Notes: Antiproliferative activity against human SF295 cells for 72 hrs by cyquant assay
# Assay type: functional, cell-based
# Experimental Parameters: SF-295, 72 h
Measured pIC50 of individual entries
Field pIC50 (float): negative decimal logarithm of the concentration in molar.

C/C=C(\C)C(=O)O[C@H]1C[C@@H](C)[C@]2(OC)CC[C@](C)(/C=C3/OC(=O)C(COC(C)=O)=C31)O2 : 5.09
C/C=C(\C)C(=O)OCC1=C2/C(=C\[C@@]3(C)CC[C@](O)(O3)[C@H](C)C[C@@H]2O)OC1=O : 5.02
C/C=C(/C)C(=O)O[C@H]1C[C@@H](C)[C@]2(O)CC[C@](C)(/C=C3/OC(=O)C(COC(C)=O)=C31)O2 : 5.07
C/C=C(\C)C(=O)O[C@H]1C[C@@H](C)[C@]2(O)CC[C@](C)(/C=C3/OC(=O)C(COC(C)=O)=C31)O2 : 5.12

Would you kindly look at the next entry?
Q: For C=C(C)C(=O)O[C@H]1C[C@@H](C)[C@]2(O)CC[C@](C)(/C=C3/OC(=O)C(COC(C)=O)=C31)O2 , write its pIC50.
Ans: 5.04

====

# Target Under Test: Signal transducer and activator of transcription 3 (Homo sapiens, UniProt P40763)
# Sequence (P40763 whole entry): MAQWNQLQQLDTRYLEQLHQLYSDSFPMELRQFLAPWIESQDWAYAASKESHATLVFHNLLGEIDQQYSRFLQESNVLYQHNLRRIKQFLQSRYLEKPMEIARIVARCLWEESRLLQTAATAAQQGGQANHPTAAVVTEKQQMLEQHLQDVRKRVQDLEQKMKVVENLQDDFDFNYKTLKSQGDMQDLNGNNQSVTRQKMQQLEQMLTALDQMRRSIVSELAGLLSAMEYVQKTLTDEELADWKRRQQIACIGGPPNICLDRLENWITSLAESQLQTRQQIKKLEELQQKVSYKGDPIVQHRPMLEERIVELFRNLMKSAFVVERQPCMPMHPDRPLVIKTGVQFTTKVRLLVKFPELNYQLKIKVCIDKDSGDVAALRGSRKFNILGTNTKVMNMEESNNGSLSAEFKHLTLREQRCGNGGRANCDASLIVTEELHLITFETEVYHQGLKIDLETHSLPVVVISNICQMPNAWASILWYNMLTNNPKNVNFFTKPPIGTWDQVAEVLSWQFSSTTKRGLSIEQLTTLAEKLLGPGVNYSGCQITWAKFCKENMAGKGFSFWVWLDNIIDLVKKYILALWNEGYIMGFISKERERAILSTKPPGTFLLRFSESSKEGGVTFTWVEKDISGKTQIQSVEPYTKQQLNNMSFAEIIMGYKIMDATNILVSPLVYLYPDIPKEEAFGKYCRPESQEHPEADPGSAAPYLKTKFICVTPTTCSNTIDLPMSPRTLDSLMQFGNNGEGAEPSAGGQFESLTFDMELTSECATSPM
# Test Method Notes: Inhibition of orthovandate-induced Stat3 phosphorylation in human U251MG cells at 5 uM for 3 hrs by immunoblot analysis in presence of 10 to 300 uM orthovandate
# Format: cell-based
# Experimental Parameters: U-251
Activity calls are given as the source filed them. The calls are words filed in the database; no cut-off is given here.
Property: inhibition

C/C=C(\C)C(=O)O[C@H]1C[C@@H](C)[C@]2(OC)CC[C@](C)(/C=C3/OC(=O)C(COC(C)=O)=C31)O2 : Active
C/C=C(/C)C(=O)O[C@H]1C[C@@H](C)[C@]2(O)CC[C@](C)(/C=C3/OC(=O)C(COC(C)=O)=C31)O2 : Active
C/C=C(\C)C(=O)O[C@H]1C[C@@H](C)[C@]2(O)CC[C@](C)(/C=C3/OC(=O)C(COC(C)=O)=C31)O2 : Active
C/C=C(\C)C(=O)OCC1=C2/C(=C\[C@@]3(C)CC[C@](O)(O3)[C@H](C)C[C@@H]2O)OC1=O : Active

====

# Test Method Notes: Cytotoxicity against mouse NIH/3T3 cells at 5uM after 72 hrs by cyquant cells
# Format: cell-based
# Experimental Parameters: nih3t3, 72 h
Property: Activity

Worked examples follow.
C=C(C)C(=O)O[C@H]1C[C@@H](C)[C@]2(OC)CC[C@](C)(/C=C3/OC(=O)C(COC(C)=O)=C31)O2 : Non-toxic
C/C=C(\C)C(=O)OCC1=C2/C(=C\[C@@]3(C)CC[C@](OC)(O3)[C@H](C)C[C@@H]2OC(=O)/C(C)=C/C)OC1=O : Toxic
C/C=C(\C)C(=O)O[C@H]1C[C@@H](C)[C@]2(OC)CC[C@](C)(/C=C3/OC(=O)C(CO)=C31)O2 : Non-toxic
C/C=C(/C)C(=O)O[C@H]1C[C@@H](C)[C@]2(O)CC[C@](C)(/C=C3/OC(=O)C(COC(C)=O)=C31)O2 : Toxic
C/C(=C\CO)C(=O)O[C@H]1C[C@@H](C)[C@]2(O)CC[C@](C)(/C=C3/OC(=O)C(CO)=C31)O2 : Non-toxic
C/C=C(\C)C(=O)O[C@H]1C[C@@H](C)[C@]2(OC)CC[C@](C)(/C=C3/OC(=O)C(COC(C)=O)=C31)O2 : Toxic

Q: For C=C(C)C(=O)O[C@H]1C[C@@H](C)[C@]2(OC)CC[C@](C)(/C=C3/OC(=O)C(CO)=C31)O2 , write its Activity.
Ans: Non-toxic

The values you see were collected from ChEMBL document CHEMBL3627612.
